# TEST_METHOD_NOTES: Negative log transformed activity
# Type: ADME
# Parameters: unit not given here
OBSERVATION_TYPE: -Log activity

Sample answers from the record:
O=C(Nc1ccc(C(O)c2ccccc2)cc1)c1cc([N+](=O)[O-])ccc1O (stereo not given)    -1
O=C(c1ccc(Cl)cc1)c1cc([N+](=O)[O-])ccc1O    0.48

Hello, I would appreciate it if you could give -Log activity for each entry below.
1. CCCCCCCCNC(=O)c1cccc(NC=O)c1O
2. O=C(Nc1ccc(Oc2ccccc2)cc1)c1cc([N+](=O)[O-])ccc1O
3. O=C(Nc1ccc(Oc2cccc(C(F)(F)F)c2)c(Cl)c1)c1cc([N+](=O)[O-])ccc1O
4. O=C(Nc1ccc(Oc2ccc([N+](=O)[O-])cc2Cl)cc1)c1cc([N+](=O)[O-])ccc1O
5. O=C(Nc1ccc(Oc2ccc(Cl)cc2)c(Cl)c1)c1cc([N+](=O)[O-])ccc1O
6. N#Cc1ccc(O)c(C(=O)Nc2ccc(Oc3ccc(Cl)cc3)c(Cl)c2)c1
7. CS(=O)(=O)c1cccc(C(=O)Nc2ccc(Oc3ccc(Cl)cc3)c(Cl)c2)c1O

Given back:
[-0.41, 0.1, 1.07, 0.92, 1.4, 1.84, 0.3]

Hello, I would appreciate it if you could give -Log activity for each entry below.
1. O=C(Nc1ccc(Sc2ccc(Cl)cc2)c(Cl)c1)c1cc([N+](=O)[O-])ccc1O
2. CCCCCCCCCCCCCCNC(=O)c1cccc([N+](=O)[O-])c1O

Given back:
[1.36, 0.82]

Hello, I would appreciate it if you could give -Log activity for each entry below.
1. CCCCCCCCCCCCCCNC(=O)c1cc([N+](=O)[O-])ccc1O
2. CCCCCCCCCCCCCCNC(=O)c1cccc(NC(C)=O)c1O
3. O=C(Nc1ccc(Oc2ccc(SC(F)(F)F)cc2)c(Cl)c1)c1cc([N+](=O)[O-])ccc1O
4. CC(C)(C)c1ccc(NC(=O)c2cc([N+](=O)[O-])ccc2O)cc1
5. CS(=O)(=O)c1ccc(O)c(C(=O)Nc2ccc(Oc3ccc(Cl)cc3)c(Cl)c2)c1
6. O=C(Nc1ccc(Oc2cccc(C(F)(F)F)c2)cc1)c1cc([N+](=O)[O-])ccc1O
7. O=C(Nc1ccc(C(=O)c2ccc(Cl)cc2)c(Cl)c1)c1cc([N+](=O)[O-])ccc1O

Given back:
1: 0.89; 2: -0.9; 3: 1.55; 4: 0.23; 5: 0; 6: 1.03; 7: 1.13

Hello, I would appreciate it if you could give -Log activity for each entry below.
1. O=CNc1cccc(C(=O)Nc2ccc(Oc3ccc(Cl)cc3)c(Cl)c2)c1O
2. CCCCCCCCCCCCCCNC(=O)c1cc(Cl)cc([N+](=O)[O-])c1O

Given back:
[-0.38, 1.36]

---

# TEST_METHOD_NOTES: Negative log transformed activity
# Assay type: ADME
# Set-up: unit not given here
Values of -Log activity greater than or equal to 0.4 map to Satisfied; values below map to Not satisfied.

O=C(Nc1ccc(Oc2ccc(Cl)cc2)c(Cl)c1)c1cccc([N+](=O)[O-])c1O    Satisfied
COc1ccc(Oc2ccc(NC(=O)c3cc([N+](=O)[O-])ccc3O)cc2Cl)cc1    Satisfied
CCCCCCCCCCCCNC(=O)c1cc([N+](=O)[O-])ccc1O    Satisfied
O=C(Nc1ccc(Nc2ccc(Cl)cc2)c(Cl)c1)c1cc([N+](=O)[O-])ccc1O    Satisfied
CCCCCCNC(=O)c1cccc(NC=O)c1O    Not satisfied
O=C(Nc1ccc(Oc2ccc(C(F)(F)F)cc2)cc1)c1cc([N+](=O)[O-])ccc1O    Satisfied
C[S+]([O-])c1ccc(O)c(C(=O)Nc2ccc(Oc3ccc(Cl)cc3)c(Cl)c2)c1 (stereo unspecified)    Not satisfied
CCCCCCCCCCCCCCNC(=O)c1cccc(NC=O)c1O    Not satisfied
CSc1ccc(O)c(C(=O)Nc2ccc(Oc3ccc(Cl)cc3)c(Cl)c2)c1    Not satisfied
CSc1cccc(C(=O)Nc2ccc(Oc3ccc(Cl)cc3)c(Cl)c2)c1O    Satisfied

Continue with the compound presented below.
Asked: // inclusive: -Log activity at least 0.4? input: CCCCCCCCCCCCCCCCNC(=O)c1cccc([N+](=O)[O-])c1O
Given back: Not satisfied

---

# System: Brugia pahangi
# TEST_METHOD_NOTES: In vivo percent reduction of Brugia pahangi worm in gerbils
# Assay type: functional
# Design: concentration or dose not given beside the values
OBSERVATION_TYPE: Worm reduction (%)
Give bare numbers, in %.

O=C(Nc1ccc(C(O)c2ccccc2)cc1)c1cc([N+](=O)[O-])ccc1O (stereo not given)    39
CC(C)(C)c1ccc(NC(=O)c2cc([N+](=O)[O-])ccc2O)cc1    44
O=C(Nc1ccc(Oc2ccc([N+](=O)[O-])cc2Cl)cc1)c1cc([N+](=O)[O-])ccc1O    70
CSc1ccc(O)c(C(=O)Nc2ccc(Oc3ccc(Cl)cc3)c(Cl)c2)c1    58
O=C(Nc1ccc(Oc2cccc(C(F)(F)F)c2)c(Cl)c1)c1cc([N+](=O)[O-])ccc1O    74

Hello, I would appreciate it if you could give Worm reduction for each entry below.
1. C[S+]([O-])c1ccc(O)c(C(=O)Nc2ccc(Oc3ccc(Cl)cc3)c(Cl)c2)c1 (stereo not given)
2. COc1ccc(Oc2ccc(NC(=O)c3cc([N+](=O)[O-])ccc3O)cc2Cl)cc1
3. CSc1cccc(C(=O)Nc2ccc(Oc3ccc(Cl)cc3)c(Cl)c2)c1O
4. N#Cc1ccc(O)c(C(=O)Nc2ccc(Oc3ccc(Cl)cc3)c(Cl)c2)c1

Given back:
1: 84; 2: 61; 3: 52; 4: 17

---

# Test system: Brugia pahangi
# TEST_METHOD_NOTES: In vivo percent reduction of Brugia pahangi worm in gerbils
# Format: functional
# Parameters: concentration or dose not given beside the values
Give Worm reduction for every item shown.
One number for each entry, in %.

Sample answers from the record:
CS(=O)(=O)c1ccc(O)c(C(=O)Nc2ccc(Oc3ccc(Cl)cc3)c(Cl)c2)c1    28
O=C(Nc1ccc(C(=O)c2ccc(Cl)cc2)c(Cl)c1)c1cc([N+](=O)[O-])ccc1O    14
CCCCCCCCCCCCNC(=O)c1cc([N+](=O)[O-])ccc1O    0
O=C(Nc1ccc(Nc2ccc(Cl)cc2)c(Cl)c1)c1cc([N+](=O)[O-])ccc1O    48
CS(=O)(=O)c1cccc(C(=O)Nc2ccc(Oc3ccc(Cl)cc3)c(Cl)c2)c1O    42

Hello, I would appreciate it if you could give Worm reduction for each entry below.
1. O=C(Nc1ccc(Oc2cccc(C(F)(F)F)c2)cc1)c1cc([N+](=O)[O-])ccc1O
2. O=C(Nc1ccc(Oc2ccccc2)cc1)c1cc([N+](=O)[O-])ccc1O
3. O=C(Nc1ccc(Oc2ccc(Cl)cc2)c(Cl)c1)c1cc([N+](=O)[O-])ccc1O

Given back:
1: 80; 2: 89; 3: 80.6

Hello, I would appreciate it if you could give Worm reduction for each entry below.
1. O=C(c1ccc(Cl)cc1)c1cc([N+](=O)[O-])ccc1O
2. O=C(Nc1ccc(Sc2ccc(Cl)cc2)c(Cl)c1)c1cc([N+](=O)[O-])ccc1O
3. O=C(Nc1ccc(Oc2ccc(C(F)(F)F)cc2)cc1)c1cc([N+](=O)[O-])ccc1O

Given back:
[61, 70, 72]

Provenance of the data: ChEMBL document CHEMBL1124926
